Reference source for all entries: patent US10174013B2

Each entry below carries its recorded pIC50.
# Tested on: MOLM13 cells
# ASSAY NOTES: Growth inhibition, MTS assay, MOLM13
# Type: cell-based, Human
# REPORTED CONDITIONS: Homo sapiens, MOLM-13; 72 hours, MTS cell viability; read-out: MOLM 13 ED50
pIC50: −log10 of the molar value.
VALUE TYPE: pIC50

> print(dat)
                                   compound        system  value.reported
1  CCn1c(N2CC[C@H](N)C2)nc2c(C#N)c(Br)c(Br)cc21 [Example 1DR]  MOLM13 cells            5.41
2  CC(C)n1c(C2CCNCC2)nc2c([N+](=O)[O-])c(Br)c(Br)cc21 [Example 26A]  MOLM13 cells            6.49
3  CC(C)n1c(N2CC[C@@H](N)C2)nc2c(C#N)c(Br)c(Br)cc21 [Example 1BI]  MOLM13 cells            5.49

----------
# SYSTEM: hERG potassium channel (Homo sapiens (Human))
# Sequence (Q12809 whole entry): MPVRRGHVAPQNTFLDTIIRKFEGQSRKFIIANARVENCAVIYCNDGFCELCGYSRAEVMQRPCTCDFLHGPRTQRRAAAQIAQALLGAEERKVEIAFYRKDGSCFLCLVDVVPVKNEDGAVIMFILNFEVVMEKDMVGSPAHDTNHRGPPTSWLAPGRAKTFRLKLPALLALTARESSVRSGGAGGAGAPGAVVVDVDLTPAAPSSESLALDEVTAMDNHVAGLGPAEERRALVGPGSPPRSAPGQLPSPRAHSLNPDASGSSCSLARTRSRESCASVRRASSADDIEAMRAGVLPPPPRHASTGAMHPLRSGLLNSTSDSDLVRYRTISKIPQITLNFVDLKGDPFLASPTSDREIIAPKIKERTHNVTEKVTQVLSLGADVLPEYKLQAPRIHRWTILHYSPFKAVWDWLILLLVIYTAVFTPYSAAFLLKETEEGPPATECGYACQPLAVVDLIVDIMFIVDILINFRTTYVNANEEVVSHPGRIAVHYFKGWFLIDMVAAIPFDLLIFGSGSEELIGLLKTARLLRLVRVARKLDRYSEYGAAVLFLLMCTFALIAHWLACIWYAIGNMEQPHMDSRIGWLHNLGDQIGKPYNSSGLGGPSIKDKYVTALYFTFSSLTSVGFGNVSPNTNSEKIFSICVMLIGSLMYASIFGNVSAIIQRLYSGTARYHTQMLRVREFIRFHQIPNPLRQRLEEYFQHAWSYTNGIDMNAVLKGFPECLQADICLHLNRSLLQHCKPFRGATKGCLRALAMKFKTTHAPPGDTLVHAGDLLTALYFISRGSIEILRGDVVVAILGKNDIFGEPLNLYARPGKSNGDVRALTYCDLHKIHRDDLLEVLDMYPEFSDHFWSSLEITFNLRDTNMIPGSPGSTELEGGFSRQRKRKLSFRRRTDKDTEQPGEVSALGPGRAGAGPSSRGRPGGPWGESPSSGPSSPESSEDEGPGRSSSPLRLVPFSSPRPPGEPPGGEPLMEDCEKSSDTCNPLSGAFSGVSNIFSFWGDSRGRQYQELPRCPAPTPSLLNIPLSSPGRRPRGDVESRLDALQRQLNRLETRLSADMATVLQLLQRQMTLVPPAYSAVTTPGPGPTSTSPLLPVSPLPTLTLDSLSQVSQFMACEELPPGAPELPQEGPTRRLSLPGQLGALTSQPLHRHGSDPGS
# ASSAY NOTES: hERG automated patch clamp assay (QPatch HT)
# Experimental: The hERG (human ether-A-go-go-related gene) channel corresponds to an important anti-target for potential new drugs since its inhibition may lead to sudden death. In order to establish whether the compounds of the present invention act on hERG, the following experiment was carried out. […]
pIC50: −log10 of the molar value. Where a name gives a salt, the structure may show the parent alone.
VALUE TYPE: pIC50

> print(dat)
                                   molecule  value.reported
1  CC(C)n1c(N2CCNCC2)nc2c([N+](=O)[O-])c(Br)c(Br)cc21 [Example 2A, hydrochloride]            5.51
2  Cl.O=[N+]([O-])c1c(Br)c(Br)cc2c1nc(N1CCNCC1)n2C1CCCC1 [Example 2D, hydrochloride]            5.80
3  CCn1c(NC2CCCCC2N)nc2c([N+](=O)[O-])c(Br)c(Br)cc21 (centres unmarked) [Example 22L]            6.07
4  CC(C)Cn1c(NCC(O)CN)nc2c([N+](=O)[O-])c(Br)c(Br)cc21 (centres unmarked)            4.77
5  O=[N+]([O-])c1c(Br)c(Br)cc2c1nc(N1CCNCC1)n2CCN1CCNCC1 [Example 2C, hydrochloride]            5.60

----------
# Tested on: HepG2 cells
# ASSAY NOTES: Growth inhibition, MTS assay, HepG2
# Format: cell-based, Human
# REPORTED CONDITIONS: Homo sapiens, HepG2, 72 h, MTS cell viability, read-out: HepG2 ED50
pIC50: −log10 of the molar value. Where a name gives a salt, the structure may show the parent alone.
Each entry below carries its recorded pIC50.
VALUE TYPE: pIC50

> print(dat)
                                    compound  value.reported
 1  CC(C)=CCn1c(N2CCNCC2)nc2c([N+](=O)[O-])c(Br)c(Br)cc21 [Example 2E, hydrochloride]            6.05
 2  O=[N+]([O-])c1c(Br)c(Br)cc2c1nc(N1CCNCC1)n2C1CC1 [Example 21A, trifluoroacetate]            5.80
 3  CC(C)n1c(NCCCN)nc2c([N+](=O)[O-])c(Br)c(Br)cc21            5.80
 4  CCn1c(NC2CCC(N)CC2)nc2c(C#N)c(Br)c(Br)cc21 (centres unmarked)            5.54
 5  CC(C)n1c(N2CCN[C@H](C)C2)nc2c([N+](=O)[O-])c(Br)c(Br)cc21 [Example 22AA]            5.74
 6  CC(C)n1c(NC2CCCNC2)nc2c(C#N)c(Br)c(Br)cc21 (centres unmarked)            5.92
 7  CC(C)n1c(N2CCOC(CN)C2)nc2c([N+](=O)[O-])c(Br)c(Br)cc21 (centres unmarked)            5.31
 8  CC(C)n1c(C2CCNCC2)nc2c([N+](=O)[O-])c(Br)c(Br)cc21 [Example 26A]            6.22
 9  CCn1c(N2CCN(CCCN3CCNCC3)CC2)nc2c([N+](=O)[O-])c(Br)c(Br)cc21 [Example 22R]            5.92
10  CC(C)n1c(N2CCNC(CO)C2)nc2c([N+](=O)[O-])c(Br)c(Br)cc21 (centres unmarked) [Example 22AD]            5.92
11  CC(C)n1c(NCCOCCN)nc2c([N+](=O)[O-])c(Br)c(Br)cc21 [Example 22J]            5.33
12  CCn1c(NCC2CCN(CCN(C)C)C2)nc2c([N+](=O)[O-])c(Br)c(Br)cc21 (centres unmarked) [Example 22O]            5.85
13  NCCCn1c(N2CC[C@@H](N)C2)nc2c([N+](=O)[O-])c(Br)c(Br)cc21            5.20
14  CCn1c(N2CCC[C@H](N)C2)nc2c(C#N)c(Br)c(Br)cc21            5.85

----------
Each entry below carries its recorded inhibition at 1 µM.
# SYSTEM: DYRK1 (Homo sapiens (Human), UniProt Q13627)
# ASSAY NOTES: ADP-Glo Kinase Assay, DYRK1
# Assay type: biochemical
# REPORTED CONDITIONS: 1 μM compound; read-out: DYRK1A % INH (1 μM)
# Experimental: Compounds of the present invention were tested for their inhibitory activity against Pim-1, Pim-2, Pim-3, Flt3 wt, Flt3 ITD, CDK2/E and DYRK1. The testing of the compounds was carried out using the ADP-Glo™ Kinase Assay from Promega Corporation (Madison, Wis., USA). The ADP-Glo™ Kinase Assay is a luminescent ADP detection assay to measure kinase activity by quantifying the amount of ADP produced during a kinase reaction. […]
Where a name gives a salt, the structure may show the parent alone.
VALUE TYPE: inhibition at 1 µM (%)

> print(dat)
                                   molecule                                    system  value.units  limit.sign  value.reported
1  CC(C)Cn1c(N2CCNCC2)nc2c([N+](=O)[O-])c(Br)c(Br)cc21  DYRK1 (Homo sapiens (Human), UniProt Q13627)            %           >              95
2  CC(C)n1c(N2CCNCC2)nc2c([N+](=O)[O-])c(Br)c(Br)cc21 [Example 2A, hydrochloride]  DYRK1 (Homo sapiens (Human), UniProt Q13627)            %           >              95
3  CC(C)n1c(N2CC(N)C2)nc2c([N+](=O)[O-])c(Br)c(Br)cc21  DYRK1 (Homo sapiens (Human), UniProt Q13627)            %           =              73
4  CCn1c(NC2CCC(N)CC2)nc2c(C#N)c(Br)c(Br)cc21 (stereo not drawn)  DYRK1 (Homo sapiens (Human), UniProt Q13627)            %           =              95
5  CC(C)n1c(N2CCNCC2)nc2c(C#N)c(Br)c(Br)cc21  DYRK1 (Homo sapiens (Human), UniProt Q13627)            %           =              75
6  CCC(C)n1c(N2CCNCC2)nc2c([N+](=O)[O-])c(Br)c(Br)cc21 (stereo not drawn) [Example 2I, hydrochloride]  DYRK1 (Homo sapiens (Human), UniProt Q13627)            %           >              95

----------
Each entry below carries its recorded inhibition at 1 µM.
# SYSTEM: DYRK1 (Homo sapiens (Human), UniProt Q13627)
# ASSAY NOTES: ADP-Glo Kinase Assay, DYRK1
# Assay type: biochemical
# REPORTED CONDITIONS: 1 μM compound; read-out: DYRK1A % INH (1 μM)
VALUE TYPE: inhibition at 1 µM

> print(dat)
                                   compound  value.reported
1  CC(C)n1c(C2CCNCC2)nc2c([N+](=O)[O-])c(Br)c(Br)cc21 [Example 26A]           > 95%
2  Cl.O=[N+]([O-])c1c(Br)c(Br)cc2c1nc(N1CCNCC1)n2C1CCCC1 [Example 2D, hydrochloride]           > 95%
3  O=[N+]([O-])c1c(Br)c(Br)cc2c1nc(N1CCNCC1)n2CCO           > 95%
